# TGI per record follows
Test system: MOLT-4 leukemia
Experiment: NCI tumour cell line growth inhibition, 48 h

Some entries whose results are on file:
COMPOUND	SYSTEM_TESTED	ASSAY_READOUT	EXPERIMENTAL_RESULT
N#Cc1c2nc3ccccc3nc2n2ccccc12	MOLT-4 leukemia	TGI	> 100 µM
CC(C)c1cccc(C(C)C)c1NC(=S)N=Nc1cc(C(C)(C)C)c(O)c(C(C)(C)C)c1	MOLT-4 leukemia	TGI	> 100 µM
Cc1c(C(=O)O)nc(/C=C/C(=O)O)[nH]c1=O	MOLT-4 leukemia	TGI	> 100 µM
Cc1ccc(C(N)=Nc2ccccc2)cc1	MOLT-4 leukemia	TGI	> 100 µM
CC(NC(=O)C(Cc1ccc(OC(=O)c2ccccc2)cc1)NC(=O)OC(C)(C)C)C(=O)NCC(=O)NC(Cc1ccccc1)NC(=O)OCc1ccccc1 (stereo unspecified)	MOLT-4 leukemia	TGI	> 100 µM

Report TGI for COP1(=O)OCc2cnccc2O1 (stereo unspecified)
> 100 µM

Report TGI for NC1CCC[C@H]1O (stereo partly specified)
> 100 µM

Report TGI for NCCCCCCn1c2c(c3ccccc3c1=O)C(=O)c1ccccc1-2
0.972 µM

Report TGI for Cc1cn(C2CC(n3cncn3)C(C(C)O)O2)c(=O)[nH]c1=O (stereo unspecified)
> 100 µM

Report TGI for CN(C)c1ccc(/C=c2/c3ccccc3n3c2cc(-c2ccc(Cl)cc2)[n+]3C)cc1
> 100 µM

Report TGI for COc1cc2c(/C=C3/C(=O)Nc4ccc(O)cc43)c(Cl)[nH]c2cc1C
0.387 µM

----------
# TGI per record follows
Test system: COLO 205 colon
Assay: NCI tumour cell line growth inhibition, 48 h
Give the value in µM but do not write µM after it.

MOLECULE	ASSAY_READOUT	EXPERIMENTAL_RESULT
O=C1/C(=C/c2ccc(O)c(O)c2)COc2ccc(-c3ccccc3)cc21	TGI	2.15

Report TGI for CCCCN(C(=O)c1ccccc1)C1CCC(=O)c2[nH]c3ccccc3c21 (stereo unspecified)
48.1

----------
# TGI per record follows
Tested on: MOLT-4 leukemia
Assay: NCI tumour cell line growth inhibition, 48 h
Give the value in µM but do not write µM after it.

COMPOUND	QUANTITY_UNIT	TGI
COc1ccc2nc3cccc([N+](=O)[O-])c3c(NCCN(C)C)c2c1	µM	0.491

Here is the next item to consider.
Report TGI for O=C1c2ccccc2C2=Cc3ccccc3C(O)N12 (stereo not given)
91.9

----------
# TGI per record follows
System: NCI/ADR-RES ovarian
Test: NCI tumour cell line growth inhibition, 48 h

MOLECULE	TGI
CC1=CC(=O)C(=C(C)C)CC1	> 100 µM
CCOC(=O)C1C(=O)CC(O)(c2ccccc2)C(C(=O)OCC)C1c1ccc(N(C)C)cc1 (configuration not stated)	> 78.2 µM
CNN1C(=O)c2c(N)c(C#N)c(-c3ccccc3)c(-c3ccccc3)c2C1=O	> 100 µM
O=C1c2ccccc2C2=Cc3ccccc3C(O)N12 (configuration not stated)	> 100 µM
CN(C)C=Nc1ccc2nonc2c1	> 100 µM

Report TGI for CC(C)CCC[C@@H](C)[C@H]1CCC2C3=CCn4c(=O)ccc(=O)n4C3CC[C@@]21C (some centres not stated)
2.35 µM

Report TGI for COc1ccc(C(=O)n2nc(/C=C/c3ccc(O)c(OC)c3)cc2/C=C/c2ccc(O)c(OC)c2)cc1
10.5 µM
